# assayTarget: Photoreceptor-specific nuclear receptor (Homo sapiens) (UniProt Q9Y5X4)
# Sequence (Q9Y5X4 whole entry, looked up, the tested form may be a part): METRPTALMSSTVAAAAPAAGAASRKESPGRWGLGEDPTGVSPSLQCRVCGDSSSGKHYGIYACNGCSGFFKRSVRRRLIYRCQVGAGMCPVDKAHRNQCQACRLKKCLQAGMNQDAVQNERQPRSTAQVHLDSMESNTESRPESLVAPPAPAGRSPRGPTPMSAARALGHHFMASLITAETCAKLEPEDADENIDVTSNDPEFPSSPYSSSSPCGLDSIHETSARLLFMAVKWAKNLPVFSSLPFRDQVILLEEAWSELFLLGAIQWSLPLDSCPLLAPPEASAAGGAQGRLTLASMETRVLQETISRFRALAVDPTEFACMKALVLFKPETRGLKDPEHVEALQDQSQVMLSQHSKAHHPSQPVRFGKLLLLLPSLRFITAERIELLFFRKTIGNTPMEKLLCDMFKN
# protocolDetails: NCOR release from NR2E3 in cells – cell-based, luminescence, CHO-S, Gal4-NCOR/VP16-NR2E3, primary screen (AID 602229);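 further: higher means lower luciferase signal from less NR2E3 corepressor binding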
# assaySetup: CHO-S Gal4-NCOR/VP16-NR2E3 two-hybrid, luciferase; at 3.98 µM
In all, about 360,000 compounds went through this assay and about 1,300 (0.36%) were called active.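 How the source made its calls: active means inhibition above the mean of all tested compounds plus 3 SD (cut at about 70% in these data); inactive means the rest.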 What follows is part of a selection rich in actives, with near analogues and random picks from the rest.
Tick one outcome: active, inactive

Worked examples, 2 compounds total:
>>> df
                                   compound  classification
0             CCN1C(=O)/C(=C\N2CCOCC2)SC1=S        inactive
1  COC(=O)c1ccc2c(c1)S(=O)(=O)NC2C (stereo not drawn)        inactive

Lookup: For O=C(Nc1cccc(Cl)c1)Nc1ccccc1NS(=O)(=O)c1cccs1 , which call appears in the assay record?
Found: inactive

Lookup: For CN(O)C(=S)c1ccccc1 , which call appears in the assay record?
Found: active

Lookup: For C/C(=N\NC(=S)NCc1ccccc1)C1CCCCC1 , which call appears in the assay record?
Found: inactive

Lookup: For CCOC(=O)C1=C(CNC2CCCCC2)NC(=O)NC1c1cc(C)ccc1C (stereo not drawn) , which call appears in the assay record?
Found: inactive

Lookup: For CCOCc1c(C(=O)N2CCN(Cc3ccc(Br)s3)CC2)oc2ccccc12 , which call appears in the assay record?
Found: inactive

Lookup: For COc1cc(NC(=O)c2ccccc2NS(=O)(=O)c2ccc(Cl)s2)cc(OC)c1 , which call appears in the assay record?
Found: active
